This section presents molecules with their documented pEC50 values.
System: HCV replicon (wild type NS3-NS5B regions of HCV type 1b) in Huh-7 luc/neo cells
Experiment: HCV replicon assay (Huh-Luc cells, luciferase read-out)
Assay type: cell-based
Conditions: Hepatitis C virus, Huh-7, 72 h, three days incubation, luciferase activity
Units for pEC50: none; it is -log10 of a concentration expressed in mol/L.

Below are worked cases with known answers.
CNC(=O)N[C@H](C(=O)N1CCC[C@H]1c1ncc(C#Cc2ccc(-c3cnc([C@@H]4CCCN4C(=O)[C@@H](NC(=O)NC)C(C)C)[nH]3)cc2)[nH]1)C(C)C :: 9.16
O=C(Cc1cccnc1)N1CCC[C@H]1c1ncc(C#Cc2ccc(-c3cnc([C@@H]4CCCN4C(=O)Cc4cccnc4)[nH]3)cc2)[nH]1 :: 8.82
COC(=O)N[C@H](C(=O)N1CCC[C@H]1c1ncc(C#Cc2ccc(-c3cnc([C@@H]4CCCN4C(=O)[C@@H](NC(=O)OC)C(C)C)[nH]3)cc2)[nH]1)C(C)C :: 10.44

// next entry
Let me know recorded pEC50 for O=C(CC1CCCCC1)N1CCC[C@H]1c1ncc(C#Cc2ccc(-c3cnc([C@@H]4CCCN4C(=O)CC4CCCCC4)[nH]3)cc2)[nH]1 , thanks.
6.89

====

Tested on: HCV replicon (wild type NS3-NS5B regions of HCV type 1b) in Huh-7 luc/neo cells
Experiment: HCV replicon assay (Huh-Luc cells, luciferase read-out)
Assay type: cell-based
Conditions: Hepatitis C virus, Huh-7, 72 h, three days incubation, luciferase activity
Excerpt: The in vitro antiviral activity against HCV of the compounds of formula I can be tested in a cellular HCV replicon system based on Lohmann et al. (1999) Science 285:110-113, with the further modifications described by Krieger et al. (2001) Journal of Virology 75: 4614-4624 (incorporated herein by reference), which is further exemplified in the examples section. […]
recorded endpoint: pEC50
Units for pEC50: none; it is -log10 of a concentration expressed in mol/L.

O=C(Nc1ccccc1)N1CCC[C@H]1c1ncc(C#Cc2ccc(-c3cnc([C@@H]4CCCN4C(=O)Nc4ccccc4)[nH]3)cc2)[nH]1 [Compound 3] :: 6.09

Let me know recorded pEC50 for CC(C)[C@@H](C(=O)N1CCC[C@H]1c1ncc(C#Cc2ccc(-c3cnc([C@@H]4CCCN4C(=O)[C@H](C(C)C)N(C)C)[nH]3)cc2)[nH]1)N(C)C [Compound 21] , thanks.
7.44

Let me know recorded pEC50 for O=C([C@@H](c1ccccc1)N1CCCCC1)N1CCC[C@H]1c1ncc(C#Cc2ccc(-c3cnc([C@@H]4CCCN4C(=O)[C@@H](c4ccccc4)N4CCCCC4)[nH]3)cc2)[nH]1 [Compound 37] , thanks.
10.52
